binding relative to P54AR4-83v2 parent by entry:
target: EGFR (form used in the assay not stated) (human, UniProt P00533 25-645, limits assumed); assay: ELISA, NEM conjugate, 10 nM
The figure you give is taken to be in ratio; do not add the unit.

Examples with their reported binding relative to P54AR4-83v2 parent follow.
Fill in: binding relative to P54AR4-83v2 parent of P54AR4-83v2 K5C, NEM conjugate (designed binder, not shown: small tags and cut ends, N-ethyl maleimide (NEM) on Cys 5, also called KSC) LPAPCNLVVSEVTEDSARLSWDDPWAFYESFLIQYQESEKVGEAIVLTVPGSERSYDLTGLKPGTEYTVSIYGVHNVYKDTNMRGLPLSAIFTT is ___
0.61

Recorded binding relative to P54AR4-83v2 parent for P54AR4-83v2 L47C, NEM conjugate (designed binder, not shown: small tags and cut ends, N-ethyl maleimide (NEM) on Cys 47) LPAPKNLVVSEVTEDSARLSWDDPWAFYESFLIQYQESEKVGEAIVCTVPGSERSYDLTGLKPGTEYTVSIYGVHNVYKDTNMRGLPLSAIFTT , please?
0.92

Return reported binding relative to P54AR4-83v2 parent; argument: P54AR4-83v2 A90C, NEM conjugate (designed binder, not shown: small tags and cut ends, N-ethyl maleimide (NEM) on Cys 90) LPAPKNLVVSEVTEDSARLSWDDPWAFYESFLIQYQESEKVGEAIVLTVPGSERSYDLTGLKPGTEYTVSIYGVHNVYKDTNMRGLPLSCIFTT
0.94

Need binding relative to P54AR4-83v2 parent of P54AR4-83v2 T48C, NEM conjugate (designed binder, not shown: small tags and cut ends, N-ethyl maleimide (NEM) on Cys 48) LPAPKNLVVSEVTEDSARLSWDDPWAFYESFLIQYQESEKVGEAIVLCVPGSERSYDLTGLKPGTEYTVSIYGVHNVYKDTNMRGLPLSAIFTT , thanks.
0.88

Given the entry P54AR4-83v2 A26C, NEM conjugate (designed binder, not shown: small tags and cut ends, N-ethyl maleimide (NEM) on Cys 26) LPAPKNLVVSEVTEDSARLSWDDPWCFYESFLIQYQESEKVGEAIVLTVPGSERSYDLTGLKPGTEYTVSIYGVHNVYKDTNMRGLPLSAIFTT , report its measured binding relative to P54AR4-83v2 parent.
0.95

Continuing:
Using the record for P54AR4-83v2 V49C, NEM conjugate (designed binder, not shown: small tags and cut ends, N-ethyl maleimide (NEM) on Cys 49) LPAPKNLVVSEVTEDSARLSWDDPWAFYESFLIQYQESEKVGEAIVLTCPGSERSYDLTGLKPGTEYTVSIYGVHNVYKDTNMRGLPLSAIFTT , report its binding relative to P54AR4-83v2 parent.
0.96

Please look up its binding relative to P54AR4-83v2 parent: P54AR4-83v2 E39C, NEM conjugate (designed binder, not shown: small tags and cut ends, N-ethyl maleimide (NEM) on Cys 39) LPAPKNLVVSEVTEDSARLSWDDPWAFYESFLIQYQESCKVGEAIVLTVPGSERSYDLTGLKPGTEYTVSIYGVHNVYKDTNMRGLPLSAIFTT
0.9

Endpoint output: binding relative to P54AR4-83v2 parent of P54AR4-83v2 R18C, NEM conjugate (designed binder, not shown: small tags and cut ends, N-ethyl maleimide (NEM) on Cys 18) LPAPKNLVVSEVTEDSACLSWDDPWAFYESFLIQYQESEKVGEAIVLTVPGSERSYDLTGLKPGTEYTVSIYGVHNVYKDTNMRGLPLSAIFTT . Value?
0.86

Give its binding relative to P54AR4-83v2 parent value. Item: P54AR4-83v2 R84C, NEM conjugate (designed binder, not shown: small tags and cut ends, N-ethyl maleimide (NEM) on Cys 84) LPAPKNLVVSEVTEDSARLSWDDPWAFYESFLIQYQESEKVGEAIVLTVPGSERSYDLTGLKPGTEYTVSIYGVHNVYKDTNMCGLPLSAIFTT
0.91

Reported binding relative to P54AR4-83v2 parent for P54AR4-83v2 G73C, NEM conjugate (designed binder, not shown: small tags and cut ends, N-ethyl maleimide (NEM) on Cys 73) LPAPKNLVVSEVTEDSARLSWDDPWAFYESFLIQYQESEKVGEAIVLTVPGSERSYDLTGLKPGTEYTVSIYCVHNVYKDTNMRGLPLSAIFTT : what is it?
0

# get_value(readout='binding relative to P54AR4-83v2 parent', item= P54AR4-83v2 S20C, NEM conjugate (designed binder, not shown: small tags and cut ends, N-ethyl maleimide (NEM) on Cys 20, also called 520C) LPAPKNLVVSEVTEDSARLCWDDPWAFYESFLIQYQESEKVGEAIVLTVPGSERSYDLTGLKPGTEYTVSIYGVHNVYKDTNMRGLPLSAIFTT )
0.81
